This collection of values is drawn from patent US10138255B2.

Recorded pEC50 for the following compounds
Test system: HIV-1 (H9IIIB strain)
Assay: Cell-Based HIV Infection Assay Using a Reporter (MT4-GFP cells)
Settings: Human immunodeficiency virus 1, inflection point (IP) of viral growth inhibition; MT4-GFP cells infected with HIV-1 H9IIIB; 50% normal human serum; mean of at least two independent experiments; read-out: Cell Based IP (50% NHS)
Reminder that pEC50 is minus the log10 of a molar concentration.

Worked cases, pEC50 given:
compound	numeric-readout
CO[C@H]1CC[C@@](c2ccc(Cl)cc2)([C@H](N)C(=O)Nc2cccc(F)c2CC[C@H]2CN[C@@H]3CCCS(=O)(=O)N2C3)CC1	6.21
COC(=O)N[C@H](C(=O)Nc1ccc(F)c(F)c1CC[C@H]1CN[C@@H]2CCCS(=O)(=O)N1C2)[C@@H](c1ccc(F)cc1)C1C[C@@H](C)O[C@@H](C)C1 (some centres unmarked)	8.00

# input Value lookup for pEC50; key = CC1(C)CC([C@H](c2ccc(Cl)cc2)[C@H](NC(=O)C(C)(C)N)C(=O)N[C@H]2CCC[C@@H]2CC[C@H]2CN[C@@H]3CCCS(=O)(=O)N2C3)CCO1 (some centres unmarked)
# output 6.82

# input Thanks! And `COC(=O)N[C@H](C(=O)N[C@H]1CCC[C@@H]1CC[C@H]1CN[C@@H]2CCCS(=O)(=O)N1C2)[C@@H](c1ccc(Cl)cc1)c1ccc(OC)nc1` ?
# output 7.42

# input Again, but for `CCO[C@H]1CC[C@H]([C@H](c2ccc(F)cc2)[C@H](N)C(=O)Nc2cccc(F)c2CC[C@H]2CN[C@@H]3CCCS(=O)(=O)N2C3)CC1`
# output 8.15

---

System: HIV-1 (H9IIIB strain)
Assay: Cell-Based HIV Infection Assay Using a Reporter (MT4-GFP cells)
Details: Human immunodeficiency virus 1, inflection point (IP) of viral growth inhibition; MT4-GFP cells infected with HIV-1 H9IIIB; 50% normal human serum; mean of at least two independent experiments; read-out: Cell Based IP (50% NHS)
param class (str): category from EC50; see ranges bottom bin = under 9 nM, middle bin = from 9 nM up to 20 nM, top bin = 20 nM and over

molecule	label-class
N[C@H](C(=O)Nc1cccc(F)c1CCC1CNC2CCCS(=O)(=O)N1C2)[C@@H](c1ccc(F)cc1)C12CC(C1)C2 (stereo partly drawn)	top bin

# input Class (by measured EC50) for `N[C@H](C(=O)N[C@H]1CCCC[C@@H]1CC[C@H]1CN[C@@H]2CCCS(=O)(=O)N1C2)C(c1ccc(F)cc1)c1ccc(F)cc1`
# output top bin

# input // same read-out, input: `COC(=O)N[C@H](C(=O)N[C@H]1CCC[C@@H]1CC[C@H]1CN[C@@H]2CCCS(=O)(=O)N1C2)C(c1ccc(F)cc1)c1ccc(F)cc1`
# output middle bin

---

System: HIV-1 (H9IIIB strain)
Experiment: Cell-Based HIV Infection Assay Using a Reporter (MT4-GFP cells)
Details: Human immunodeficiency virus 1, inflection point (IP) of viral growth inhibition; MT4-GFP cells infected with HIV-1 H9IIIB; 50% normal human serum; mean of at least two independent experiments; read-out: Cell Based IP (50% NHS)
Reported EC50 by item:
Field format: number, assumed nM, no unit text.

Some solved cases for reference:
molecule	numeric-readout
COC(=O)N[C@H](C(=O)N[C@H]1CCCC[C@@H]1CC[C@H]1CN[C@@H]2CCCS(=O)(=O)N1C2)[C@@H](c1ccc(Cl)cc1)[C@@H]1CCOC(C)(C)C1	24
CC(F)(F)c1cncc([C@H](c2ccc(Cl)cc2)[C@H](N)C(=O)Nc2cccc(F)c2CCC2CNC3CCCS(=O)(=O)N2C3)c1 (stereo partly drawn)	11
COc1cc([C@H](c2ccc(Cl)c(F)c2)[C@H](N)C(=O)Nc2cccc(F)c2CCC2CNC3CCCS(=O)(=O)N2C3)ccn1 (stereo partly drawn)	4.5

# input Quick one: EC50 for `COC(=O)N[C@H](C(=O)N[C@H]1CCCC[C@@H]1CC[C@H]1CN[C@@H]2CCCS(=O)(=O)N1C2)[C@H](c1cncc(C(F)(F)F)c1)c1ccc(Cl)c(F)c1` ?
# output 19

# input Likewise for `COC(=O)N[C@@H](C(=O)N[C@H]1CCC[C@@H]1CC[C@H]1CN[C@@H]2CCCS(=O)(=O)N1C2)[C@@H](c1ccc(Cl)cc1)C1CCN(C(=O)OC2(C)CC2)CC1` ?
# output 490

# input Let us now turn to `COC(=O)N1CCC(c2ccc(Cl)cc2)([C@H](N)C(=O)Nc2cccc(F)c2CC[C@H]2CN[C@@H]3CCCS(=O)(=O)N2C3)CC1`
# output 14

# input What about `COC(=O)N[C@H](C(=O)Nc1cccc(F)c1CC[C@H]1CN[C@@H]2CCCS(=O)(=O)N1C2)[C@@]1(c2ccc(Cl)cc2)C[C@@H](C)O[C@@H](C)C1` ?
# output 27

# input Param item: CC(C)Oc1ccc(C(c2ccc(Cl)cc2)[C@H](N)C(=O)Nc2cncc(F)c2CC[C@H]2CN[C@@H]3CCCS(=O)(=O)N2C3)cn1 (stereo in doubt)
# output 8.4

---

pEC50 reference
Tested on: HIV-1 (H9IIIB strain)
Assay: Cell-Based HIV Infection Assay Using a Reporter (MT4-GFP cells)
Settings: Human immunodeficiency virus 1, inflection point (IP) of viral growth inhibition; MT4-GFP cells infected with HIV-1 H9IIIB; 50% normal human serum; mean of at least two independent experiments; read-out: Cell Based IP (50% NHS)
To interpret pEC50, take it as minus log10 of a concentration measured in moles per litre.

compound	pEC50
COC(=O)N[C@H](C(=O)N[C@H]1CCCC[C@@H]1CC[C@H]1CN[C@@H]2CCCS(=O)(=O)N1C2)[C@@H](c1ccc(Cl)cc1)c1ccc(OC)nc1	7.33
N[C@H](C(=O)Nc1cccc(F)c1CCC1CNC2CCCS(=O)(=O)N1C2)C(c1ccc(Cl)cc1)c1ccnc(C(F)(F)F)c1 (stereo in doubt)	8.17
C[C@@H]1CC([C@H](c2ccc(F)cc2)[C@H](N)C(=O)Nc2cccc(F)c2CC[C@H]2CN[C@@H]3CCCS(=O)(=O)N2C3)C[C@@H](C)O1 (stereo partly drawn)	7.66
N[C@H](C(=O)Nc1cncc(F)c1CC[C@H]1CN[C@@H]2CCCS(=O)(=O)N1C2)[C@@H](c1ccc(F)cc1)C1CCOCC1	7.17
N[C@H](C(=O)N[C@H]1CCCC[C@@H]1CC[C@H]1CN[C@@H]2CCCS(=O)(=O)N1C2)[C@H](c1cncc(F)c1)c1ccc(Cl)c(F)c1	7.12
COC(=O)N[C@H](C(=O)Nc1cccc(F)c1CCC1CNC2CCCS(=O)(=O)N1C2)[C@@H](c1ccc(Cl)cc1)c1ccc(=O)n(C(C)C)c1 (stereo partly drawn)	7.23

# input # pEC50 lookup, item `CC1(OC(=O)N2CCC([C@H](c3ccc(Cl)cc3)[C@H](N)C(=O)N[C@H]3CCC[C@@H]3CC[C@H]3CN[C@@H]4CCCS(=O)(=O)N3C4)CC2)CC1`
# output 7.00

# input Now this one: `N[C@H](C(=O)Nc1cccc(F)c1CC[C@H]1CN[C@@H]2CCCS(=O)(=O)N1C2)[C@@H](c1ccc(Cl)cc1)c1nc(C(F)(F)F)cs1`
# output 8.16

---

Documented log10 EC50 across a set of compounds
Test system: HIV-1 (H9IIIB strain)
Assay: Cell-Based HIV Infection Assay Using a Reporter (MT4-GFP cells)
Settings: Human immunodeficiency virus 1, inflection point (IP) of viral growth inhibition; MT4-GFP cells infected with HIV-1 H9IIIB; 50% normal human serum; mean of at least two independent experiments; read-out: Cell Based IP (50% NHS)
Hey, these are logged values: log10 of EC50, nM being the unit before logging.

Example entries and their recorded answers appear below.
compound	numeric-readout
N[C@H](C(=O)Nc1cccc(F)c1CC[C@H]1CNC[C@@H]2CCCS(=O)(=O)N1C2)[C@@H](c1ccc(Cl)cc1)C1CCOCC1	2.83
COC(=O)N[C@H](C(=O)Nc1cccc(F)c1CC[C@H]1CN[C@@H]2CCCS(=O)(=O)N1C2)[C@]1(c2ccc(Cl)cc2)CC[C@@H](OC)CC1	0.88
C[C@@H]1CC([C@H](c2ccc(Cl)cc2)[C@H](N)C(=O)N[C@H]2CCCC[C@@H]2CC[C@H]2CN[C@@H]3CCCS(=O)(=O)N2C3)C[C@H](C)O1 (stereo partly drawn)	1.57

# input Lab note: need log10 EC50 for N[C@H](C(=O)Nc1cccc(F)c1CCC1CNC2CCCS(=O)(=O)N1C2)[C@H](c1cncc(Cl)c1)c1ccc(Cl)c(F)c1 (stereo partly drawn) on HIV-1 (H9IIIB strain), anyone have it?
# output 0.71

# input And for COC(=O)N[C@H](C(=O)Nc1cccc(F)c1CCC1CN[C@@H]2CCCS(=O)(=O)N1C2)[C@H](CC(C)C)c1ccc(F)cc1 (stereo partly drawn) ?
# output 1.36

# input Next: CCO[C@H]1CC[C@H](C(c2ccc(Cl)c(F)c2)[C@H](N)C(=O)Nc2cccc(F)c2CC[C@H]2CN[C@@H]3CCCS(=O)(=O)N2C3)CC1 (stereo partly drawn)
# output 0.74

# input Record: `CC(C)Oc1cnc([C@H](c2ccc(Cl)cc2)[C@H](N)C(=O)Nc2cncc(F)c2CC[C@H]2CN[C@@H]3CCCS(=O)(=O)N2C3)cn1`
# output 0.72

# input Also COC(=O)N[C@H](C(=O)Nc1cccc(F)c1CCC1CNC2CCCS(=O)(=O)N1C2)[C@@H](c1ccc(Cl)cc1)C1CCOCC1 (stereo partly drawn) ?
# output 1.11

# input Subsequent entry: C[C@@H]1CC([C@H](c2ccc(F)cc2)[C@H](N)C(=O)Nc2ccc(F)c(F)c2CC[C@H]2CN[C@@H]3CCCS(=O)(=O)N2C3)C[C@H](C)O1 (stereo partly drawn)
# output 1.40

# input How about `COC(=O)N[C@H](C(=O)N[C@H]1CCCC[C@@H]1CC[C@H]1CN[C@@H]2CCCS(=O)(=O)N1C2)[C@H](c1cncc(F)c1)c1ccc(Cl)c(F)c1` ?
# output 1.74

# input Also `CC(C)O[C@H]1CC[C@H]([C@H](c2ccc(Cl)cc2)[C@H](N)C(=O)Nc2cncc(F)c2CC[C@H]2CN[C@@H]3CCCS(=O)(=O)N2C3)CC1` , if possible.
# output 0.89

# input Could you do the same for `CCO[C@H]1CC[C@H]([C@H](c2ccc(Cl)c(F)c2)[C@H](N)C(=O)Nc2cncc(F)c2CC[C@H]2CN[C@@H]3CCCS(=O)(=O)N2C3)CC1` , please?
# output 0.76
